target: Cytochrome P450 1A2 (Homo sapiens); assay: Cytochrome panel assay with activity outcomes; details: recombinant CYP, pro-luciferin dealkylation, luminescence, p450-cyp1a2; series mostly up to 57.1 µM
Hit rate of the full screen: of about 16,000 compounds, about 5,700 (36%) were called active. Another 24% or so got no clear call; they are omitted. The list shows a part of the results.
Measured metric: AC50

>>> endpoint_value("CCc1nc(N[C@H](C(=O)O)C(C)CC)c2oc3ccccc3c2n1 (stereo partly specified)")
"inactive"
>>> endpoint_value("CCCS(=O)(=O)N1CCCC(C(=O)NCCCN2CCN(c3ccc(F)cc3)CC2)C1 (stereo unspecified)")
"inactive"
>>> endpoint_value("CC(C)C(=O)Cc1ccc2ccccc2n1")
"3.16 µM (active)"
>>> endpoint_value("Cc1nc2ccccn2c1C(=O)N/N=C/c1ccccc1[N+](=O)[O-]")
"15.8 µM (active)"
>>> endpoint_value("CCc1nc(SCC(=O)NCCc2ccccc2)c2oc3ccccc3c2n1")
"1.58 µM (active)"
>>> endpoint_value("Cc1cc(Br)ccc1NC(=O)CCSc1ccccc1")
"4.47 µM (active)"

Recorded values, source PubChem BioAssay AID1851.
